SUBJECT_OF_TEST: UniProt P10635
pKi: −log10 of the molar value.
MEASURE_NAME: pKi

{"columns": ["COMPOUND_STRUCTURE_STRING", "MEAS_VALUE"],
 "data": [
  ["COc1ccc(-c2cc(=O)c3c(O)c(OC)c(O)cc3o2)cc1OC", 4.02]
]}

* * *

SUBJECT_OF_TEST: CYP2D6 (Homo sapiens, UniProt P10635)
Construct: pooled human liver microsomes (0.25 mg/mL); tissue BD Gentest Co. H161; host or cells: pooled human liver microsomes
Sequence (P10635 whole entry): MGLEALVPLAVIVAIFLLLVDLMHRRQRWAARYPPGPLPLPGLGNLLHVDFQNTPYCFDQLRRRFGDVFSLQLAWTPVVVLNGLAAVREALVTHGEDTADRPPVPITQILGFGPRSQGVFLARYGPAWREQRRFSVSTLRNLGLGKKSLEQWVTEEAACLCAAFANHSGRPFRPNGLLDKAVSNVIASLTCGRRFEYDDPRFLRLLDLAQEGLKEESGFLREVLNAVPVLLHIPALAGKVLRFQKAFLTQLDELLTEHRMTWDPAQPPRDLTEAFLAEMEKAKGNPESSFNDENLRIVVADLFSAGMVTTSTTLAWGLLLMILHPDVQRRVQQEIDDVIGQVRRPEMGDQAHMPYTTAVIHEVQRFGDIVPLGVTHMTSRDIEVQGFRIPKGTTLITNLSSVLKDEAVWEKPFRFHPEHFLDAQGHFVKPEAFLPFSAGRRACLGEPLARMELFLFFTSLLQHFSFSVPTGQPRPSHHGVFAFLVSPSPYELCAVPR
PROCEDURE_TEXT: Cocktail probe assay in pooled human liver microsomes: bufuralol 1'-hydroxylation (IC50)
Assay type: in vitro ADME
CONDITION_CONTEXT: 5.0 μM bufuralol, no preincubation
pIC50: −log10 of the molar value.
Reported pIC50 by item:
MEASURE_NAME: pIC50

{"columns": ["COMPOUND", "SUBJECT_OF_TEST", "MEASURE_NAME", "MEAS_VALUE"],
 "data": [
  ["COc1cc(-c2cc(=O)c3c(O)c(OC)c(O)cc3o2)ccc1O [jaceosidin]", "CYP2D6 (Homo sapiens, UniProt P10635)", "pIC50", 4.10],
  ["COc1ccc(-c2cc(=O)c3c(O)c(OC)c(O)cc3o2)cc1OC [eupatilin]", "CYP2D6 (Homo sapiens, UniProt P10635)", "pIC50", 4.23]
]}
